// data source = PubChem BioAssay (NCI)

system: HOP-62 NSCLC; test: NCI tumour cell line growth inhibition, 48 h
Where a SMILES comes first, the peptide text is derived from it.
// reported TGI per item

CN(C)N=Nc1nn(C(=O)Nc2ccc(Cc3ccccc3)cc2)c2ccccc12 = > 100 µM

Measured TGI, CC(=O)NC(CO)C(=O)NC(Cc1ccc(O)cc1)C(=O)NCC(N)=O (stereo not drawn) (Ac-Ser-Tyr-Gly-NH2; configuration not given here) : > 100 µM

Value of TGI reported for the molecule `C=C(CC)C[C@@H]1C[C@]2(C(=O)OC)c3[nH]c4ccccc4c3CCN2C1=O` is 34 µM

Note to self: TGI recorded for `COc1cc(/C=C\c2ccc(Cl)cc2)cc(OC)c1OC` was > 100 µM

# molecule `Cc1cc(Cl)ccc1NC(=O)C(=O)Cc1occc(=O)c1O` ; its TGI = > 100 µM

Per the record, `Cc1ccc(-n2cc(-c3ccc(Cl)cc3)c(C#N)c2N)cc1` has TGI of 31.9 µM

// field: TGI; key: `C/C([O-])=C(/c1nc(-c2ccc([N+](=O)[O-])o2)no1)[n+]1cc(C)ccc1C` ; value = 37.3 µM

Note to self: TGI recorded for `COc1cccc(C(=O)N[C@@H]2[C@H](O)[C@@H](CO)O[C@H]2n2cnc3c(N)ncnc32)c1` was > 100 µM

Sure, the documented TGI for `CN(C)Cc1[nH]c2ccccc2c1C(=O)c1ccccc1` is > 100 µM

Measured TGI of `CCN1C(=O)CS/C1=N\NC(=O)CSc1nc2ccccc2c(=O)n1CC` : > 100 µM

The molecule `COC(=O)CCC1(O)C=CC(=O)C=C1` showed TGI equal to > 100 µM

* * *

tested on: SK-OV-3 ovarian; assay: NCI tumour cell line growth inhibition, 48 h
Parameter: GI50. Scope: all listed entries.

O=C(Cn1c2ccccc2c2ccncc21)N/N=C\c1ccc2ccccc2c1 = 18.2 µM

The value of GI50 recorded for `Cc1cc(Cl)ccc1Nc1nc(C(F)(F)F)ccc1C(=O)Nc1cccc(C(F)(F)F)c1` when tested on SK-OV-3 ovarian reads 2.44 µM

Entry `O=C1NC(SCc2ccc(F)cc2)=N/C1=C/c1cccc(OCc2ccc(Cl)cc2)c1` ; assay system SK-OV-3 ovarian; GI50 recorded at 36.9 µM

`O=c1[nH]nc(-c2ccccc2)c2c(-c3ccccc3)onc12` tested on SK-OV-3 ovarian gave GI50: 0.981 µM

Bench note, SK-OV-3 ovarian: entry `COC(=O)Nc1nc2ccc(S(=O)(=O)c3ccc(NC(=O)Nc4cc(C(F)(F)F)ccc4F)cc3)cc2[nH]1` , its GI50 = > 25 µM

* * *

tested on: MCF7 breast; test: NCI tumour cell line growth inhibition, 48 h
Entries and their measured TGI follow.

Previously resolved entries follow.
COc1ccccc1N1C(=O)CC(=O)N(C(=O)CCCCCCCCC(=O)N2C(=O)CC(=O)N(c3ccccc3OC)C2=S)C1=S = > 100 µM
C[N+]12CCCCC1C(CN1C(=O)c3ccccc3C1=O)CCC2 (stereo not drawn) = > 100 µM

Notebook: `COc1nc(C)nc2c1ncn2Cc1ccccc1` , TGI read as > 100 µM

* * *

system: KM12 colon; test: NCI tumour cell line growth inhibition, 48 h; in the data active = GI50 below about 0.43 µM; inactive = the rest
I would appreciate it if you answered using one of these outcomes: true = active, false = inactive

COc1cc2c(cc1OCCCCCn1c3ccccc3c3ccccc31)N=C[C@@H]1CCCN1C2=O = false

**Q:** Query: recorded result category for `COc1ccc(CN=C(N)N=C(N)N)cc1OC` in this test
**A:** false

**Q:** Recorded test call requested for `COC(=O)Nc1nc2ccc(S(=O)(=O)c3ccc(NC(=O)Nc4cc(C(F)(F)F)ccc4F)cc3)cc2[nH]1`
**A:** false

**Q:** Please state the recorded outcome for this compound: `C=C1C(=O)O[C@H]2[C@H]1CC/C(CNC(=O)/C=C/c1ccc(Cl)cc1Cl)=C\CC[C@@]1(C)O[C@@H]21`
**A:** false

**Q:** // param item: CN(C)c1ncnc2c1ccn2C1OC(CO)C(O)C1O (stereo not given) ; yields the recorded call
**A:** false

**Q:** Hey, what did the test say about `CCC(=O)c1c(C(F)(F)F)n([O-])c2ccccc2[n+]1=O` ?
**A:** false

**Q:** Assay outcome for `Cc1ccccc1NC(=O)c1cc2ccccc2cc1O` : what was it?
**A:** false

**Q:** What did this assay record as the result for CCc1nc(N)nc(N)c1C#CC(C)c1cc(-c2ccnc(C)c2)c2oc(C)nc2c1 (stereo not given) ?
**A:** true

**Q:** Call for entry `Cc1cn(Cc2ccccc2CCl)c(=O)n(Cc2ccccc2CCl)c1=O` :
**A:** false

**Q:** What is the recorded call for this compound in the test? `Oc1ccc(O)c2c1C1(Cl)C(Cl)=C(Cl)C2(Cl)C1(Cl)Cl`
**A:** false

* * *

test system: MOLT-4 leukemia; test: NCI tumour cell line growth inhibition, 48 h
assay-readout: TGI

Example results:
Nc1cc(N)c(N=Nc2cccc3c(S(=O)(=O)O)cccc23)cc1N=Nc1cc([N+](=O)[O-])ccc1O = > 100 µM
COc1ccc(CN=C(N)N=C(N)N)cc1OC = > 1000 µM
CC(=O)O/N=C/c1cc2c(cc1Br)OCO2 = > 349 µM
Cc1cccc(N=C2NC(=O)C(CC(=O)Nc3ccccc3Cl)S2)c1 (stereo unspecified) = > 100 µM
CNc1ncnc2c1cnn2Cc1cn(CCCCO)nn1 = > 100 µM

Alright, here's another compound for you.
The compound listed as `CCCCCCC(=O)OC[n+]1cccc(-c2c(COC(=O)NC(C)C)c(COC(=O)NC(C)C)c3n2CCC3)c1` shows TGI equal to > 80.7 µM

* * *

tested on: OVCAR-8 ovarian; assay: NCI tumour cell line growth inhibition, 48 h
assay-readout: GI50

CC(=O)n1c(-c2ccc(Cl)c(Cl)c2)cn(-c2ccc(Cl)cc2)c1=O = 23.1 µM
COc1ccc2c(c1)C=C1CSCC3=Cc4cc(OC)ccc4OC13O2 = 0.522 µM
O=CN1N=C(c2ccc(Nc3ccnc4cc(Cl)ccc34)cc2)CC1c1ccc(Cl)cc1 (centres undefined) = 3.22 µM

Shifting focus to the molecule that follows.
The molecule `Nc1ccccc1C#C/C=C\C#Cc1ccccc1F` showed GI50 equal to 18.5 µM

* * *

tested on: K-562 leukemia; experiment: NCI tumour cell line growth inhibition, 48 h
assay-readout: TGI

CCOC(=O)/C=C1\Oc2ccccc2C1(C)O (centres undefined) = > 100 µM
COc1ccc(/C(C#N)=C(/N)SCc2ccccc2Cl)cc1 = 49.5 µM
COc1ccc(/C=C(\Cl)c2ccc(OC)cc2)cc1 = > 100 µM

# input for lookup
Recorded result, `CNc1ncnc2c1cnn2Cc1cn(CCCCO)nn1` , TGI: > 100 µM

* * *

In this section, each of the compounds is paired with its reported TGI.
tested on: MOLT-4 leukemia; assay: NCI tumour cell line growth inhibition, 48 h

Past entries and their recorded results:
CCCc1cc(-c2ccc(-c3cc(CCC)c(C=O)[nH]3)s2)[nH]c1C=O = > 100 µM
O=C1/C(=C/c2ccc(Cl)cc2)Sc2scc(-c3cccc([N+](=O)[O-])c3)[n+]21 = 3.9 µM
CC1=C(C(=O)Nc2ccccc2C)C(c2ccccc2C)C(C(=O)Nc2ccccc2C)=C(C)N1 = > 10 µM

// TGI value for `O=C1NC(SCc2ccc(F)cc2)=N/C1=C/c1cccc(OCc2ccc(Cl)cc2)c1` : > 100 µM

TGI reading for C=CCC1C2CCC(O[Si](C(C)C)(C(C)C)C(C)C)(C(C(=O)OC)C2)C1O (stereo unspecified) : > 100 µM

Measured TGI, CC[C@H](C)[C@H]1NC(=O)[C@@H](NC(=O)[C@@H](CC(C)C)N(C)C(=O)C2CCCN2C(=O)[C@H](C)O)[C@@H](C)OC(=O)[C@H](Cc2ccccc2)N(C)C(=O)[C@@H]2CCCN2C(=O)[C@H](CC(C)C)NC(=O)[C@@H](C)C(=O)[C@H](C(C)C)OC(=O)C[C@@H]1O (stereo partly specified) : > 62.5 µM

The compound listed as `S=C(Nc1cccc(C2(N3CCCCC3)CCCCC2)c1)Nc1cccc(C2(N3CCCCC3)CCCCC2)c1` has a reported TGI of 42.8 µM

The recorded TGI for entry N#CC(C(=O)CCC(=O)Nc1ccc(Cl)c(Cl)c1)c1ccc(Cl)cc1 (stereo unspecified) equals > 100 µM

Lab book: TGI of `CN(C)N=Nc1nn(C(=O)Nc2ccc(Cc3ccccc3)cc2)c2ccccc12` noted as > 100 µM

Just so you know, measured TGI for `CN(C)C(=O)Oc1ccc(C(=S)Nc2ccccc2)cc1Br` came out at 38.1 µM

Noted for O=C(NC1C=Nc2ccccc2NC1=O)c1ccccc1Cl (stereo unspecified) : its TGI reads 54.4 µM
